Recorded measurements of IC50, one per entry
Target: T1, Recombinant HLA-DRB1*1501 protein (human)
T1 chain 1: not shown
T1 chain 2: not shown
Assay: competition with biotinylated MBP84-102, europium-streptavidin
Conditions: remark: other sources report otherwise
value type: IC50

| binder | test result |
| --- | --- |
| ENIQRFLPNPAGVQLEDPEF [FVIII589-608 peptide] | 4.6 µM |
| ENRSWYLTENIQRFLPNPAG [FVIII581-600 peptide] | 3.7 µM |

Attribution: patent US20130116182A1
